All values here come from ChEMBL document CHEMBL1131979.

# Species: Cavia porcellus
# assayMethodText: Antiarrhythmic effect expressed as percent reduction of the maximal rate of stimulation for antiarrhythmic activity in guinea pig auricle at 8 uM
# Format: functional, Heart
readoutLabel: Inhibition (%)
Your answer should be a plain number; it is taken to be in %.

Asked: Need Inhibition of "CCOC(=O)C1CCN(CCCC(=O)c2ccc(F)cc2)CC1" , thanks.
Given back: 25.66

Asked: Need Inhibition of "CC(C)OC(=O)C1CCN(CCCC(=O)c2ccc(F)cc2)CC1" , thanks.
Given back: 12

Asked: Need Inhibition of "COC(=O)C1CCN(CCC(=O)N2CCN(c3ccc(F)cc3)CC2)CC1" , thanks.
Given back: 10

Asked: Need Inhibition of "COC(=O)C1CCN(CCCN2CCN(c3ccccc3)CC2)CC1" , thanks.
Given back: 6

Asked: Need Inhibition of "CCCOC(=O)C1CCN(CCCC(=O)c2ccc(F)cc2)CC1" , thanks.
Given back: 10

Asked: Need Inhibition of "COC(=O)C1CCN(CCCOc2cccc(NC(C)=O)c2)CC1" , thanks.
Given back: 7

Asked: Need Inhibition of "COC(=O)C1CCN(CCCC(=O)c2ccc(F)cc2)CC1" , thanks.
Given back: 24.33

Asked: Need Inhibition of C=C[C@H]1CN2CC[C@H]1C[C@@H]2[C@@H](O)c1ccnc2ccc(OC)cc12.C=C[C@H]1CN2CC[C@H]1C[C@@H]2[C@@H](O)c1ccnc2ccc(OC)cc12.O.O.O=S(=O)(O)O [QUINIDINE SULFATE] , thanks.
Given back: 29.68

---

Assignment: determine reported Log P/(100-P) for the given compounds.
# assayMethodText: Lipophilicity was determined
# Format: physicochemical
# conditionLabel: octanol/water
Lab note: record just the number, no unit beside it.

Asked: Need Log P/(100-P) of "COC(=O)C1CCN(CCCN2CCN(c3ccccc3)CC2)CC1" , thanks.
Given back: -1.195

Asked: Need Log P/(100-P) of "COC(=O)C1CCN(CCCC(=O)c2ccc(F)cc2)CC1" , thanks.
Given back: -0.493

Asked: Need Log P/(100-P) of "CCOC(=O)C1CCN(CCCC(=O)c2ccc(F)cc2)CC1" , thanks.
Given back: -0.462

Asked: Need Log P/(100-P) of "CCCOC(=O)C1CCN(CCCC(=O)c2ccc(F)cc2)CC1" , thanks.
Given back: -0.954

Asked: Need Log P/(100-P) of "COC(=O)C1CCN(CCCOc2cccc(NC(C)=O)c2)CC1" , thanks.
Given back: -1.123

Asked: Need Log P/(100-P) of "COC(=O)C1CCN(CCC(=O)N2CCN(c3ccc(F)cc3)CC2)CC1" , thanks.
Given back: -0.954

Asked: Need Log P/(100-P) of "CC(C)OC(=O)C1CCN(CCCC(=O)c2ccc(F)cc2)CC1" , thanks.
Given back: -0.865
